measurement target: human TLR8 (hTLR8) (Homo sapiens, UniProt Q9NR97)
Sequence (Q9NR97 27-1041): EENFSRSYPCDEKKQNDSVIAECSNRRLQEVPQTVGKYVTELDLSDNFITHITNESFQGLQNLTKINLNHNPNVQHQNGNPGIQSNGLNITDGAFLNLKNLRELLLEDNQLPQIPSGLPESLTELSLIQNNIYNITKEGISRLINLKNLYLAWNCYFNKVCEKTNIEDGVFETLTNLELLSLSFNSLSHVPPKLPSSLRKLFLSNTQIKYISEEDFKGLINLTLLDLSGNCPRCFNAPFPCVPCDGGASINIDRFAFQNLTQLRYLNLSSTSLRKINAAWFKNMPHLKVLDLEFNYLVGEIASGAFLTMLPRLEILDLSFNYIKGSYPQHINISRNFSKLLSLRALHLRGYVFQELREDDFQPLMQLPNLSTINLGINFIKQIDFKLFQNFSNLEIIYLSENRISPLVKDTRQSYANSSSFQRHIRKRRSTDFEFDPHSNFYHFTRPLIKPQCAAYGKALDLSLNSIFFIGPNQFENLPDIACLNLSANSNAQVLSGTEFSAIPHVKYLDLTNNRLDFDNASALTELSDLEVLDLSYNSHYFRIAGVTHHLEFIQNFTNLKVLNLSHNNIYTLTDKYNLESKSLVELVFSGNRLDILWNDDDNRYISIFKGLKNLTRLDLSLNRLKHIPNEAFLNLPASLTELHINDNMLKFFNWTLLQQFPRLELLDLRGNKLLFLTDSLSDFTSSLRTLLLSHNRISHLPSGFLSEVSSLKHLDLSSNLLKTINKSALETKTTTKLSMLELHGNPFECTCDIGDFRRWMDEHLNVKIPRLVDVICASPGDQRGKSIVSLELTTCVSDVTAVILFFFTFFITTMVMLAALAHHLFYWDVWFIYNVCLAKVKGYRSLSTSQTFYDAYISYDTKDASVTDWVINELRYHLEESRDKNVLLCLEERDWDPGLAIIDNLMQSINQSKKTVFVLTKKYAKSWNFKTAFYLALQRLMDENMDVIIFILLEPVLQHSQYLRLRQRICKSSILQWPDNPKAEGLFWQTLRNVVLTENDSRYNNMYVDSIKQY
protocol details: Human TLR8 agonist activity assay (measured in a similar manner)
reported conditions: HEK-Blue TLR cells, SEAP reporter, measured in a similar manner to TLR7; some values average of multiple measurements
value type: EC50 (nM)

>>> recorded_number("CCCCN(CCO)c1nc(N)nc2cn(Cc3ccc(CN[C@H]4C[C@H](OC)C4)c4oc(C)nc34)nc12")
421
>>> recorded_number("COc1cc(CNC2CCC2)ccc1Cn1cc2nc(N)nc(N(CCO)CCCCF)c2n1")
1950
>>> recorded_number("CCCCN(CCO)c1nc(N)nc2cn(Cc3c(F)cc(N4CCC(NC5CC6(COC6)C5)CC4)cc3F)nc12")
2100
>>> recorded_number("CCCCN(c1nc(N)nc2cn(Cc3ccc(CN4CCCCC4)cc3OC)nc12)C(C)CO (racemic) [Compound 49]")
682

====

measurement target: human TLR8 (hTLR8) (Homo sapiens, UniProt Q9NR97)
protocol details: Human TLR8 agonist activity assay (measured in a similar manner)
reported conditions: HEK-Blue TLR cells, SEAP reporter, measured in a similar manner to TLR7; some values average of multiple measurements
pEC50: −log10 of the molar value.
pEC50 reference
value type: pEC50

>>> recorded_number("CCCCN(CCO)c1nc(N)nc2cn(Cc3ccc(CNC4CCOCC4)c4cn[nH]c34)nc12")
5.90
>>> recorded_number("CCCCN(CCO)c1nc(N)nc2cn(Cc3ccc(CN[C@@H]4CCCN(C(=O)OC)C4)c4cccnc34)nc12")
6.29
>>> recorded_number("CCCCN(CCO)c1nc(N)nc2cn(Cc3ccc(CNC(C)(C)COC)cc3OC)nc12")
6.28
>>> recorded_number("CCCCN(CCO)c1nc(N)nc2cn(Cc3ccc(CNC(C)(C)C)c4c3OCCC4)nc12")
6.34
>>> recorded_number("CCCCCNCc1ccc(Cn2cc3nc(N)nc(N(CCO)CCCC)c3n2)c2ncccc12")
5.86
>>> recorded_number("CCCCN(CCO)c1nc(N)nc2cn(Cc3c(F)cc(CNC4(CO)CC4)cc3OC)nc12")
5.68
>>> recorded_number("CCCCN(CCO)c1nc(N)nc2cn(Cc3ccc(CNC(C)C)cc3)nc12")
6.09
>>> recorded_number("CCCCN(CCO)c1nc(N)nc2cn(Cc3ccc(CN[C@H]4CCOC4)c4c3OCCC4)nc12")
6.44

====

measurement target: human TLR7 (hTLR7) (Homo sapiens)
Sequence (Q9NYK1 27-1049): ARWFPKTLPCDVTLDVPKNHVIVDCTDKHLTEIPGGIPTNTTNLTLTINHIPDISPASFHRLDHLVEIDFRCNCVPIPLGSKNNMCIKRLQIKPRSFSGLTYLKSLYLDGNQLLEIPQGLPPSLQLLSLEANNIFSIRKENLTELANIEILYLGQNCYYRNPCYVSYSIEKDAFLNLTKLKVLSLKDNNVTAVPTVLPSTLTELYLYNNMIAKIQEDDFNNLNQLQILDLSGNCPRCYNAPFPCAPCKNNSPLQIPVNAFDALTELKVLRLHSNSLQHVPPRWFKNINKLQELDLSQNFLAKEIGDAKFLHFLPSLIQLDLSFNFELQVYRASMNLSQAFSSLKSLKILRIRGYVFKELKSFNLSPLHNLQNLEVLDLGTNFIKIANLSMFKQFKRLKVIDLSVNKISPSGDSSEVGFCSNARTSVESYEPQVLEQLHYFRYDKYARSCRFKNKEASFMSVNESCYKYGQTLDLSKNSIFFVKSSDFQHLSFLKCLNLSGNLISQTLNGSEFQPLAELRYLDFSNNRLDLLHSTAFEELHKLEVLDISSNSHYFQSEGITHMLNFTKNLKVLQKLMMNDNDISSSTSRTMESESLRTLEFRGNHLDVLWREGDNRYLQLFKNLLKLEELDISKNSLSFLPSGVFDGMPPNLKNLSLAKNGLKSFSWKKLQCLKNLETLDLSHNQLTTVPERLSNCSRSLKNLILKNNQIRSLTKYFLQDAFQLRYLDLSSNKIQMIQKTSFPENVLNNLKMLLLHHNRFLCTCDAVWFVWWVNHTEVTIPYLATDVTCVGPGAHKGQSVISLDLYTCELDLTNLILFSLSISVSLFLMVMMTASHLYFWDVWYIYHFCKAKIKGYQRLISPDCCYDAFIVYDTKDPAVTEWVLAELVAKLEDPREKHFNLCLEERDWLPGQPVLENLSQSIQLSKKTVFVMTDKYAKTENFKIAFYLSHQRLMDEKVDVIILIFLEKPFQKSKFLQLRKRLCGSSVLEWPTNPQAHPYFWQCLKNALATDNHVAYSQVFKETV
protocol details: Human TLR7 agonist activity assay (HEK-Blue TLR7 SEAP reporter)
reported conditions: HEK-Blue TLR7 cells, 18 h incubation, Quanti-Blue, OD 620 nm, some values average of multiple measurements
pEC50: −log10 of the molar value.
Measured pEC50 accompanies every entry in the list below.
value type: pEC50

>>> recorded_number("COc1cc(CN[C@H]2C[C@H](OC)C2)ccc1Cn1cc2nc(N)nc(N(CCO)CCCCF)c2n1 [Compound 170]")
5.75
>>> recorded_number("CCCCN(CCO)c1nc(N)nc2cn(Cc3ccc(CNCC)cc3OC)nc12 [Compound 17]")
5.94
>>> recorded_number("CCCCN(CCO)c1nc(N)nc2cn(Cc3c(F)cc(CN[C@@H]4COC[C@@H]4O)cc3OC)nc12 [Compound 95]")
5.91
>>> recorded_number("CCCCN(CCO)c1nc(N)nc2cn(Cc3ccc(CNC4(C)CCOCC4)cc3OC)nc12 [Compound 88]")
6.09

====

Catalogue of pEC50 readings, one per entry.
measurement target: human TLR8 (hTLR8) (Homo sapiens, UniProt Q9NR97)
protocol details: Human TLR8 agonist activity assay (measured in a similar manner)
reported conditions: HEK-Blue TLR cells, SEAP reporter, measured in a similar manner to TLR7; some values average of multiple measurements
pEC50: −log10 of the molar value.
value type: pEC50

>>> recorded_number("CCCCN(CCO)c1nc(N)nc2cn(Cc3c(F)cc(CN[C@@H]4CCOC4)cc3F)nc12")
5.99
>>> recorded_number("CCCCN(CCO)c1nc(N)nc2cn(Cc3c(F)cc(C4CCC(N(C)C5CC6(COC6)C5)CC4)cc3OC)nc12 (stereo not shown)")
5.76
>>> recorded_number("CCCCN(CCO)c1nc(N)nc2cn(Cc3ccc(CNC4(C)CCOCC4)cc3OC)nc12")
6.27
>>> recorded_number("CCCCN(CCO)c1nc(N)nc2cn(Cc3ccc(CNC4CCOC4)cc3OC)nc12 (stereo not shown)")
6.44

====

measurement target: human TLR8 (hTLR8) (Homo sapiens, UniProt Q9NR97)
protocol details: Human TLR8 agonist activity assay (measured in a similar manner)
reported conditions: HEK-Blue TLR cells, SEAP reporter, measured in a similar manner to TLR7; some values average of multiple measurements
Description: This procedure describes a method for assaying human TLR7 (hTLR7) and human TLR8 (hTLR8) agonist activity of the compounds disclosed herein. HEK-Blue™ TLR7 cells were added to each well of a 384-well tissue-culture plate (15,000 cells per well) and incubated 16-18 h at 37° C., 5% CO2. […] SLAP levels were measured using an Envision plate reader (OD=620 nm). […] TLR8 activity was measured in a similar manner.
Property: EC50; scope: individual compounds
value type: EC50 (nM)

>>> recorded_number("CCCCN(CCO)c1nc(N)nc2cn(Cc3c(F)cc(C4=CCNC4)cc3OC)nc12")
2020
>>> recorded_number("CCCCN(CCO)c1nc(N)nc2cn(Cc3c(F)cc(C4CCN(CCO)CC4)cc3OC)nc12")
1850
>>> recorded_number("CCCCN(CCO)c1nc(N)nc2cn(Cc3ccc(CN[C@@H]4CCCN(C(=O)CN)C4)c4cccnc34)nc12")
2270
>>> recorded_number("CCCCN(CCO)c1nc(N)nc2cn(Cc3ccc(CNC4CCOCC4)cc3OC)nc12")
596
>>> recorded_number("CCCCNCc1ccc(Cn2cc3nc(N)nc(N(CCO)CCCC)c3n2)c2ncccc12")
205
>>> recorded_number("CCCCN(CCO)c1nc(N)nc2cn(Cc3ccc(CNC4CCOC(C)(C)C4)cc3OC)nc12 (single isomer, unassigned) [Compound 111]")
453
>>> recorded_number("CCCCN(CCO)c1nc(N)nc2cn(Cc3c(F)cc(C4CCC(N(C)CCOC)CC4)cc3OC)nc12 (stereo not shown)")
1620

====

measurement target: human TLR8 (hTLR8) (Homo sapiens)
protocol details: Human TLR8 agonist activity assay (measured in a similar manner)
reported conditions: HEK-Blue TLR cells, SEAP reporter, measured in a similar manner to TLR7; some values average of multiple measurements
Mark label 1 for EC50 under 1000 nM, label 0 if at or over.

>>> classification("CCCCN(CCO)c1nc(N)nc2cn(Cc3ccc(CNC4CCOC(C)C4)cc3OC)nc12 (single isomer, unassigned) [Compound 122]")
"label 1"
>>> classification("COc1cc(CN[C@H]2C[C@H](OC)C2)ccc1Cn1cc2nc(N)nc(N(CCO)CCCCF)c2n1")
"label 0"
>>> classification("CCCCN(CCO)c1nc(N)nc2cn(Cc3ccc(CN[C@@H]4CCOC4)n4ncnc34)nc12")
"label 0"
>>> classification("CCCCN(CCO)c1nc(N)nc2cn(Cc3ccc(CNC4CCCOC4)c4scnc34)nc12 (centres unmarked)")
"label 1"
>>> classification("CCCCN(CCO)c1nc(N)nc2cn(Cc3ccc(CNC4CCC4)cc3C(F)F)nc12")
"label 0"
>>> classification("CCCN(CCO)c1nc(N)nc2cn(Cc3ccc(CNC4CCC4)cc3OC)nc12")
"label 0"
>>> classification("CCCCN(CCO)c1nc(N)nc2cn(Cc3c(F)cc(C4=CCNCC4)cc3OC)nc12")
"label 0"
>>> classification("CCCCN(CCO)c1nc(N)nc2cn(Cc3ccc(CNC4CCN(C)CC4)c4cccnc34)nc12")
"label 0"

Entry source: patent US20250282776A1
